I'd be grateful if you could share measured inhibition for these entries.
- Measurement Target: D(2) dopamine receptor (Homo sapiens, UniProt P14416)
- Sequence (P14416 whole entry): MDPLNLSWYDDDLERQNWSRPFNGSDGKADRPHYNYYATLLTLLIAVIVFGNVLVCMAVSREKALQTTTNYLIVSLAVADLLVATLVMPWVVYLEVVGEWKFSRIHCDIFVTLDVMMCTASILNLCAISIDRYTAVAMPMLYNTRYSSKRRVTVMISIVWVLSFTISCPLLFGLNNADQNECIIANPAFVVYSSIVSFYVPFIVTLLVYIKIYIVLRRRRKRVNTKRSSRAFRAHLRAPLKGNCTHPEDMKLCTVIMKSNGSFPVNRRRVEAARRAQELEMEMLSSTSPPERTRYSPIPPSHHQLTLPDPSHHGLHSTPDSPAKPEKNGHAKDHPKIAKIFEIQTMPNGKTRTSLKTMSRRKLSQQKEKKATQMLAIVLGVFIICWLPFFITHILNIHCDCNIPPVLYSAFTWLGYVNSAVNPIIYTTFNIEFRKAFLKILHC
- Protocol Notes: Displacement of [3H]Spiperone from D2 receptor (unknown origin) transfected in HEK293T cells at 10 uM after 50 mins by liquid scintillation counting analysis
- Format: cell-based
- Setup Conditions: HEK-293T
Reply with the number, then its unit.

Recorded inhibition, per entry:
Compound: COc1cc2c(cc1O)[C@@H]1Cc3sc(CCCC(C)C)cc3CN1CC2
Measurement Target: D(2) dopamine receptor (Homo sapiens, UniProt P14416)
inhibition: 89%

Compound: COc1cc2c(cc1O)[C@@H]1Cc3sc(CC(C)Cl)cc3CN1CC2 (stereo not given in full)
Measurement Target: D(2) dopamine receptor (Homo sapiens, UniProt P14416)
inhibition: 105%

Compound: COc1cc2c(cc1O)[C@@H]1Cc3sc(CC4CCC4)cc3CN1CC2
Measurement Target: D(2) dopamine receptor (Homo sapiens, UniProt P14416)
inhibition: 98.7%

Please report inhibition for every entry that follows.
1. CCCc1cc2c(s1)C[C@H]1c3cc(O)c(OC)cc3CCN1C2
2. COc1cc2c(cc1O)[C@@H]1Cc3sc(CCCl)cc3CN1CC2
3. COc1cc2c(cc1O)[C@@H]1Cc3sc(CCCCl)cc3CN1CC2
4. COc1cc2c(cc1O)[C@@H]1Cc3sc(CCCCCl)cc3CN1CC2
5. COc1cc2c(cc1O)[C@@H]1Cc3sc(CC(C)(C)C)cc3CN1CC2
6. CCCCCc1cc2c(s1)C[C@H]1c3cc(O)c(OC)cc3CCN1C2
7. COc1cc2c(cc1O)[C@@H]1Cc3sccc3CN1CC2
8. CCCCc1cc2c(s1)C[C@H]1c3cc(O)c(OC)cc3CCN1C2

-- reply
96.3%
98.4%
97.2%
103%
97%
103%
95.8%
99.5%

----------
- Measurement Target: D(3) dopamine receptor (Homo sapiens, UniProt P35462)
- Sequence (P35462 whole entry): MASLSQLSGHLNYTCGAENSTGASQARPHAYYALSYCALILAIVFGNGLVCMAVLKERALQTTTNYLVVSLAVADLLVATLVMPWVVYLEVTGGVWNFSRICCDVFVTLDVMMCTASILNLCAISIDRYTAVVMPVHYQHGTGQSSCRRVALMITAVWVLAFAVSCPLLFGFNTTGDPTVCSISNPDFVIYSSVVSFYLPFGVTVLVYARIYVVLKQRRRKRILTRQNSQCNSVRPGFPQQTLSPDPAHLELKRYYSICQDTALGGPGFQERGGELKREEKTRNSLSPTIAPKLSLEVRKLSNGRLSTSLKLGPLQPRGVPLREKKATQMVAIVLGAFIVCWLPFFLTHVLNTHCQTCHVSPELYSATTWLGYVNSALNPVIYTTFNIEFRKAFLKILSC
- Protocol Notes: Displacement of [3H]Spiperone from D3 receptor (unknown origin) transfected in HEK293T cells after 50 mins by liquid scintillation counting analysis
Value Type: Ki
Reply with the number, then its unit.

Please report Ki for every entry that follows.
1. COc1cc2c(cc1O)[C@@H]1Cc3sc(CC(C)C)cc3CN1CC2
2. COc1cc2c(cc1O)[C@@H]1Cc3ccc(O)c(OC)c3CN1CC2
3. CCCCc1cc2c(s1)C[C@H]1c3cc(O)c(OC)cc3CCN1C2

-- reply
1: 19.9 nM; 2: 90 nM; 3: 39.9 nM

----------
- Measurement Target: D(1A) dopamine receptor (Homo sapiens, UniProt P21728)
- Sequence (P21728 whole entry): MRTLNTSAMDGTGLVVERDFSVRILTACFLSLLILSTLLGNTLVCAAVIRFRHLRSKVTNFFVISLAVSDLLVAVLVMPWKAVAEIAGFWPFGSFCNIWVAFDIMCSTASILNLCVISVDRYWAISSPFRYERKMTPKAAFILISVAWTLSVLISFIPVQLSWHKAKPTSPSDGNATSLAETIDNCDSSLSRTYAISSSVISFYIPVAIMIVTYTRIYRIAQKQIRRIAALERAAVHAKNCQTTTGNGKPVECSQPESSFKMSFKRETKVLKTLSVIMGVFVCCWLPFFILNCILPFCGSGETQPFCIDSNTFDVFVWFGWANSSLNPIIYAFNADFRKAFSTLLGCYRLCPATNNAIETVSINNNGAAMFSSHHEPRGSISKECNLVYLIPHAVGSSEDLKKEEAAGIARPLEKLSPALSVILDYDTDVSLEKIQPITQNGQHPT
- Protocol Notes: Displacement of [3H]SCH23390 from D1 receptor (unknown origin) transfected in HEK293T cells at 10 uM after 50 mins by liquid scintillation counting analysis
- Type: cell-based
- Setup Conditions: HEK-293T
Value Type: inhibition (%)
Numbers only, in %.

Recorded inhibition, per entry:
Smiles: CCCc1cc2c(s1)C[C@H]1c3cc(O)c(OC)cc3CCN1C2
Unit Of Measurement: %
inhibition: 98.2
//
Smiles: CCc1cc2c(s1)C[C@H]1c3cc(O)c(OC)cc3CCN1C2
Unit Of Measurement: %
inhibition: 98.2
//
Smiles: COc1cc2c(cc1O)[C@@H]1Cc3sc(CCCl)cc3CN1CC2
Unit Of Measurement: %
inhibition: 96.7

Please report inhibition for every entry that follows.
1. COc1cc2c(cc1O)[C@@H]1Cc3sc(CC(C)(C)C)cc3CN1CC2
2. COc1cc2c(cc1O)[C@@H]1Cc3sc(CC(C)C)cc3CN1CC2

-- reply
[93.8, 97.6]

----------
- Measurement Target: 5-hydroxytryptamine receptor 1A (Homo sapiens) (UniProt P08908)
- Sequence (whole entry): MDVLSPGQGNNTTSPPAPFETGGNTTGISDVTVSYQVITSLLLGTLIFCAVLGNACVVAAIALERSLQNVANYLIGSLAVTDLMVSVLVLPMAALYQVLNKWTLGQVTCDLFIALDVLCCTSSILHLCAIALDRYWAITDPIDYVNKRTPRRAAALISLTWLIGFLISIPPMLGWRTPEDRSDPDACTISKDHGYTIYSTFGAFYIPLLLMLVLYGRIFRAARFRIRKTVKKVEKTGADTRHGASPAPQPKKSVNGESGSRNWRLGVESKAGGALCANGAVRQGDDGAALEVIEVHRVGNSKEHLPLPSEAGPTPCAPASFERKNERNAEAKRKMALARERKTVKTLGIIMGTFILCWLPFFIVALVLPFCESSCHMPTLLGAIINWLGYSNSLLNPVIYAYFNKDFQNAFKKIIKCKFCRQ
- Protocol Notes: Displacement of [3H]8-OH-DPAT from 5HT1A receptor (unknown origin) transfected in HEK293T cells at 10 uM after 50 mins by liquid scintillation counting analysis
- Type: cell-based
- Setup Conditions: HEK-293T
Value Type: inhibition (%)
One number for each entry, in %.

Molecule: COc1cc2c(cc1O)[C@@H]1Cc3sc(CCC(C)C)cc3CN1CC2
Unit Of Measurement: %
Value Reported: 86.9

Molecule: CCCc1cc2c(s1)C[C@H]1c3cc(O)c(OC)cc3CCN1C2
Unit Of Measurement: %
Value Reported: 85.3

Molecule: COc1cc2c(cc1O)[C@@H]1Cc3sc(CCCl)cc3CN1CC2
Unit Of Measurement: %
Value Reported: 90.8

Molecule: COc1cc2c(cc1O)[C@@H]1Cc3sc(CC(C)Cl)cc3CN1CC2 (stereo partly specified)
Unit Of Measurement: %
Value Reported: 91.6

Molecule: CCc1cc2c(s1)C[C@H]1c3cc(O)c(OC)cc3CCN1C2
Unit Of Measurement: %
Value Reported: 92.1

Please report inhibition for every entry that follows.
1. COc1cc2c(cc1O)[C@@H]1Cc3sccc3CN1CC2
2. CCCCCc1cc2c(s1)C[C@H]1c3cc(O)c(OC)cc3CCN1C2
3. COc1cc2c(cc1O)[C@@H]1Cc3sc(CCCCl)cc3CN1CC2
4. CCCCc1cc2c(s1)C[C@H]1c3cc(O)c(OC)cc3CCN1C2
5. COc1cc2c(cc1O)[C@@H]1Cc3sc(CCCC(C)C)cc3CN1CC2

-- reply
1. 89.7
2. 81.7
3. 92.2
4. 90
5. 36.3

----------
- Measurement Target: D(1A) dopamine receptor (Homo sapiens, UniProt P21728)
- Protocol Notes: Displacement of [3H]SCH23390 from D1 receptor (unknown origin) transfected in HEK293T cells at 10 uM after 50 mins by liquid scintillation counting analysis
- Assay type: cell-based
- Setup Conditions: HEK-293T
Value Type: inhibition (%)
One number for each entry, in %.

Recorded inhibition, per entry:
Compound: COc1cc2c(cc1O)[C@@H]1Cc3sc(CCCCl)cc3CN1CC2
inhibition [%]: 94.3

Compound: COc1cc2c(cc1O)[C@@H]1Cc3sc(CCC(C)C)cc3CN1CC2
inhibition [%]: 88.8

Compound: CCC(C)Cc1cc2c(s1)C[C@H]1c3cc(O)c(OC)cc3CCN1C2 (stereo partly specified)
inhibition [%]: 92

Please report inhibition for every entry that follows.
1. COc1cc2c(cc1O)[C@@H]1Cc3sc(CC4CC4)cc3CN1CC2
2. CCCCCc1cc2c(s1)C[C@H]1c3cc(O)c(OC)cc3CCN1C2
3. COc1cc2c(cc1O)[C@@H]1Cc3sc(CCCCCl)cc3CN1CC2
4. COc1cc2c(cc1O)[C@@H]1Cc3sccc3CN1CC2
5. COc1cc2c(cc1O)[C@@H]1Cc3sc(CC4CCC4)cc3CN1CC2

-- reply
[96.8, 94.7, 91.1, 98.1, 97.1]

----------
- Measurement Target: D(1A) dopamine receptor (Homo sapiens, UniProt P21728)
- Protocol Notes: Displacement of [3H]SCH23390 from D1 receptor (unknown origin) transfected in HEK293T cells after 50 mins by liquid scintillation counting analysis
Mark Criterion met only for Ki values smaller than 0.1 µM; exact matches and larger values are Criterion not met.

Study these solved cases before continuing.
Molecule: CCC(C)Cc1cc2c(s1)C[C@H]1c3cc(O)c(OC)cc3CCN1C2 (stereo not given in full)
Assigned Class: Criterion not met
//
Molecule: COc1cc2c(cc1O)[C@@H]1Cc3ccc(O)c(OC)c3CN1CC2
Assigned Class: Criterion met
//
Molecule: CCCc1cc2c(s1)C[C@H]1c3cc(O)c(OC)cc3CCN1C2
Assigned Class: Criterion met
//
Molecule: CCCCc1cc2c(s1)C[C@H]1c3cc(O)c(OC)cc3CCN1C2
Assigned Class: Criterion met
//
Molecule: COc1cc2c(cc1O)[C@@H]1Cc3sc(CC(C)Cl)cc3CN1CC2 (stereo not given in full)
Assigned Class: Criterion met
//
Molecule: COc1cc2c(cc1O)[C@@H]1Cc3sc(CCCl)cc3CN1CC2
Assigned Class: Criterion met

Lab note: next molecule to report on.
-- ask Hello, is Ki of the following molecule strictly smaller than 0.1 µM? `COc1cc2c(cc1O)[C@@H]1Cc3sc(CC4CC4)cc3CN1CC2`
-- reply Criterion met
